# System: Danio rerio larvae (5 dpf)
# EXPERIMENT_SUMMARY: difference in combined optomotor response to red, green and blue moving lines vs DMSO (percentage points); higher = stronger optomotor response than DMSO
# CONDITION_SUMMARY: 10 µM; exposure time 6 h
Structures can show the parent of a compound that is named as a salt.
Here the recorded difference is given for each entry.
Please reply with the value in numeric form only.

difference in this record for C[C@H]1[C@H](NC(=O)/C(=N\OC(C)(C)C(=O)O)c2csc(N)n2)C(=O)N1S(=O)(=O)O : -0.4

difference in this record for CC(=O)OC[C@H]1O[C@@H]([S-])[C@H](OC(C)=O)[C@@H](OC(C)=O)[C@@H]1OC(C)=O.CCP(CC)CC.[Au+] : -5.02

difference in this record for CC[C@H](C)C(=O)O[C@H]1C[C@H](O)C=C2C=C[C@H](C)[C@H](CC[C@@H](O)C[C@@H](O)CC(=O)O)[C@H]21 [Pravastatin (sodium salt)] : 1.82
